# measurementTarget: HNF4γ LBD / CBP (CREB-binding protein) (Homo sapiens, UniProt Q14541)
# Construct: HNF4γ amino acids 102-408; biotin (chemical biotinylation)
# Sequence (Q14541 102-408): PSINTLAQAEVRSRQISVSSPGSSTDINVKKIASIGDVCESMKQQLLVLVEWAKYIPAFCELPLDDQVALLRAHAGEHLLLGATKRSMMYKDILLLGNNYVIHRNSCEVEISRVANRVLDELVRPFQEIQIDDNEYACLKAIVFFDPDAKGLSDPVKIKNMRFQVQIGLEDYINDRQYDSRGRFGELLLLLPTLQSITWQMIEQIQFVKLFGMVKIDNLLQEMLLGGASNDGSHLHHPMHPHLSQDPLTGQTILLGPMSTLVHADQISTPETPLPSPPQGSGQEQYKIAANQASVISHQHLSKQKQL
# assayExplanation: FRET assay of CBP recruitment to HNF4γ LBD
# protocolConditions: cell-free FRET, dose dependent, read-out: apparent binding constant (increase of CBP-HNF4 interaction)
assayEndpoint: Kd (nM)

structuresmiles=CCCCCCCCCCCCCCCCCC(=O)O measurementtarget="HNF4γ LBD / CBP (CREB-binding protein) (Homo sapiens, UniProt Q14541)" recordedresult=1000
structuresmiles=CCCCCCCCCCCCCCCC(=O)O measurementtarget="HNF4γ LBD / CBP (CREB-binding protein) (Homo sapiens, UniProt Q14541)" recordedresult=1000

###

# measurementTarget: HNF4α LBD / CBP (CREB-binding protein) (Homo sapiens)
# Construct: HNF4α amino acids 141465 and HNF4γ amino acids 102-408; biotin (chemical biotinylation)
# Sequence (P41235 150-474 limits assumed): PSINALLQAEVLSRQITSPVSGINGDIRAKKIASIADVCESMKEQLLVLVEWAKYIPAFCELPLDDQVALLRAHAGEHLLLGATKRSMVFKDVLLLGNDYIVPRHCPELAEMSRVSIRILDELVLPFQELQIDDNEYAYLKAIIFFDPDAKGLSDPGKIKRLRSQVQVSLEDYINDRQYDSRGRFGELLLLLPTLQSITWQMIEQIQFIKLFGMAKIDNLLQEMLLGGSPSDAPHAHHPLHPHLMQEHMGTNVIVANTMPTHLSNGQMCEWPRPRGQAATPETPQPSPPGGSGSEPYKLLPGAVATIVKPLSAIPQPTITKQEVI
# assayExplanation: FRET assay of CBP recruitment to HNF4α LBD
# protocolConditions: cell-free FRET, dose dependent, read-out: apparent binding constant (increase of CBP-HNF4 interaction)
assayEndpoint: Kd (µM)

structuresmiles=CCCCCCCCCCCCCCCCCC(=O)O measurementtarget="HNF4α LBD / CBP (CREB-binding protein) (Homo sapiens)" assayendpoint=Kd recordedresult=1
structuresmiles=CCCCCCCCCCCCCCCC(=O)O measurementtarget="HNF4α LBD / CBP (CREB-binding protein) (Homo sapiens)" assayendpoint=Kd recordedresult=1
